System: rat osteocalcin promoter
ASSAY_TEXT: OCN (osteocalcin) promoter assay in RG-15 (ROS 17/2.8) cells
Type: cell-based
MEASURED_QUANTITY: EC50 (nM)

Before answering, review these 2 worked examples.
> print(dat)
                                   molecule  measured.quantity  recorded.measurement
1  CCC(CC)(c1ccc(OCC(O)C(C)(C)C)c(C)c1)c1cc(C)c(C(=O)NC(C)(C)C(=O)OC)s1 (single isomer, unassigned) [Ex. 70]               EC50                  25.8
2  CCC(CC)(c1ccc(OCC(=O)Nc2nnn[nH]2)c(C)c1)c1cc(C)c(CCC(O)C(C)(C)C)s1 (single isomer, unassigned) [Ex. 35]               EC50                  21.1

P: CCC(CC)(c1ccc(OCC(O)C(C)(C)C)c(C)c1)c1cc(C)c(C(=O)Nc2nnn[nH]2)s1 (single isomer, unassigned) [Ex. 36]
Q: CCC(CC)(c1ccc(OCC(O)C(C)(C)C)c(C)c1)c1cc(C)c(C(=O)N2CCC[C@H]2C(=O)O)s1 (stereo partly drawn)
Input: // compare: P vs Q , metric EC50, want the smaller Kindly state the label of the option you pick.
Output: P

A: CCC(CC)(c1ccc(OCC(O)C(C)(C)C)c(C(C)C)c1)c1ccc(C(=O)O)s1 (single isomer, unassigned)
B: CCC(CC)(c1ccc(OCC(O)C(C)(C)C)c(C)c1)c1cc(C)c(C(=O)N[C@@H](C(=O)O)C(C)C)s1 (stereo partly drawn) [Ex. 86]
Input: Sort A and B by EC50 descending and give the first. Could you answer with the label of the item you picked?
Output: B

---

System: rat osteocalcin promoter
ASSAY_TEXT: OCN (osteocalcin) promoter assay in RG-15 (ROS 17/2.8) cells
Type: cell-based
Description: 4. The OCN Promoter test is described in the “Assay” section of the Description, infra. 3. The OCN (Osteocalcin) Promoter Assay The OCN Promoter Assay is an indicator and marker for osteoporosis. Desired assay results are EC50 less than or equal to 325 nM. Preferred assay results are less than 50 nM. […] The activation of osteocalcin by VDR ligands was evaluated in a rat osteoblast-like cell line RG-15 (ROS 17/2.8) stably expressing rat osteocalcin promoter fused with luciferase reporter gene. […]
MEASURED_QUANTITY: EC50 (nM)

Some solved cases for reference:
> print(dat)
                                   compound        measurement.target  unit.of.measure  recorded.measurement
1  CCC(CC)(c1ccc(OCC(O)C(C)(C)C)c(C)c1)c1cc(C)c(C(=O)N[C@H](C)C(=O)OC)s1 (single isomer, unassigned) [Ex. 66]  rat osteocalcin promoter               nM                  28.4
2  CCC(CC)(c1ccc(OCC(O)C(C)(C)C)c(C)c1)c1cc(C)c(C(=O)N[C@@H](C)C(=O)OC)s1 (single isomer, unassigned) [Ex. 64]  rat osteocalcin promoter               nM                   4.1
3  CCC(CC)(c1ccc(OCC(O)C(C)(C)C)c(C)c1)c1cc(C)c(C(=O)N[C@H](C)C(=O)O)s1 (stereo partly shown) [Ex. 67]  rat osteocalcin promoter               nM                  19.4
4  CCC(CC)(c1ccc(OCC(O)C(C)(C)C)c(C)c1)c1cc(C)c(C(=O)NC(C)(C)C(=O)O)s1 (single isomer, unassigned)  rat osteocalcin promoter               nM                     2
5  CCC(CC)(c1ccc(OCC(C)(O)C(C)(C)C)c(C)c1)c1ccc(C(=O)O)s1 (single isomer, unassigned) [Ex. 104]  rat osteocalcin promoter               nM                  90.9

I: CCC(CC)(c1ccc(OCC(O)C(C)(C)C)c(C)c1)c1cc(C)c(C(=O)NCCS(C)(=O)=O)s1 (single isomer, unassigned) [Ex. 40]
II: CCC(CC)(c1ccc(OCC(=O)O)c(C)c1)c1cc(C)c(CCC(O)C(C)(C)C)s1 (single isomer, unassigned) [Ex. 33B]
Input: Of I and II , which shows the smaller EC50 value? // caller expects the label of the chosen entry
Output: II
(II: 7.55 nM, I: 613 nM)

---

Tested on: rat osteocalcin promoter
ASSAY_TEXT: OCN (osteocalcin) promoter assay in RG-15 (ROS 17/2.8) cells
Format: cell-based
pEC50: −log10 of the molar value.
MEASURED_QUANTITY: pEC50

Some solved entries appear below for comparison.
COMPOUND	pEC50
CCC(CC)(c1ccc(OCC(O)C(C)(C)C)c(C)c1)c1cc(C)c(C(=O)NCCS(C)(=O)=O)s1 (single isomer, unassigned) [Ex. 39]	6.52
CCC(CC)(c1ccc(OCC(O)C(C)(C)C)c(C)c1)c1cc(C)c(C(=O)N[C@@H](C)C(=O)O)s1 (stereo partly shown) [Ex. 65]	8.47
CCc1cc(C(CC)(CC)c2ccc(C(=O)O)s2)ccc1OCC(O)C(C)(C)C (single isomer, unassigned) [Ex. 101]	7.53
CCC(CC)(c1ccc(OCC(O)C(C)(C)C)c(C)c1)c1cc(C)c(C(=O)N[C@@H](C)C(=O)OC)s1 (single isomer, unassigned) [Ex. 54]	7.56
CCC(CC)(c1ccc(OCC(=O)O)c(C)c1)c1cc(C)c(CCC(O)C(C)(C)C)s1 (single isomer, unassigned) [Ex. 33A]	7.36
CCc1cc(C(CC)(CC)c2ccc(C(=O)O)s2)ccc1OCC(O)C(C)(C)C (single isomer, unassigned) [Ex. 100]	8.25

1: CCCc1cc(C(CC)(CC)c2ccc(C(=O)O)s2)ccc1OCC(C)(O)C(C)(C)C (single isomer, unassigned) [Ex. 112]
2: CCCc1cc(C(CC)(CC)c2ccc(C(=O)O)s2)ccc1OCC(C)(O)C(C)(C)C (single isomer, unassigned) [Ex. 113]
Input: Just curious, which one has the larger pEC50 reading, 1 or 2 ? Identify your pick by its label.
Output: 1
(1: 8.30, 2: 6.93)

---

ASSAY_TEXT: Mouse hypercalcemia assay (six day, serum ionized calcium)
Assay type: in vivo
MEASURED_QUANTITY: Mouse Hypercal (µg/kg/day)

> print(dat)
                                   compound  recorded.measurement
1  CCCc1cc(C(CC)(CC)c2ccc(C(=O)O)s2)ccc1OCC(O)C(C)(C)C (single isomer, unassigned) [Ex. 94]                  1000
2  CCC(CC)(c1ccc(OCC(O)C(C)(C)C)c(C(C)C)c1)c1ccc(C(=O)O)s1 (stereo not drawn) [Ex. 92]                  1000
3  CCC(CC)(c1ccc(OCC(=O)Nc2nnn[nH]2)c(C)c1)c1cc(C)c(CCC(O)C(C)(C)C)s1 (single isomer, unassigned) [Ex. 35]                  3000

1: CCC(CC)(c1ccc(OCC(C)(O)C(C)(C)C)c(C)c1)c1ccc(C(=O)O)s1 (single isomer, unassigned) [Ex. 104]
2: CCC(CC)(c1ccc(OCC(C)(O)C(C)(C)C)c(C)c1)c1ccc(C(=O)O)s1 (stereo not drawn) [Ex. 103]
3: CCc1cc(C(CC)(CC)c2ccc(C(=O)O)s2)ccc1OCC(C)(O)C(C)(C)C (single isomer, unassigned)
Input: Could you please order the items by Mouse Hypercal, going from the lowest number to the highest? Output spec: a listing of the labels in the requested order.
Output: 3, 1, 2

---

MEASUREMENT_TARGET: VDR (Homo sapiens, UniProt P11473)
Construct: the receptor expression vector pGa14-VDR-LBD (10 ng)
Sequence (P11473 127-423 limits assumed): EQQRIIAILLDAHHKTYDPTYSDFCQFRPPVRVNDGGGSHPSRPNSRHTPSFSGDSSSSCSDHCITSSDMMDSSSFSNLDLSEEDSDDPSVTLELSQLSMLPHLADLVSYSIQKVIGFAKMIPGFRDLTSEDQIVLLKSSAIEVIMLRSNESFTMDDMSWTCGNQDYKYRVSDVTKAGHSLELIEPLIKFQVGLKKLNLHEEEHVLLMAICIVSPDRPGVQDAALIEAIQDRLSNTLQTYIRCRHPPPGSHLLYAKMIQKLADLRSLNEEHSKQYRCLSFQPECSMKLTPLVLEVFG
ASSAY_TEXT: VDR CTF (Caco-2 cell co-transfection assay)
CONDITION_INFO: Caco-2 cells
pEC50: −log10 of the molar value.
MEASURED_QUANTITY: pEC50

> print(dat)
                                   molecule  measured.quantity  recorded.measurement
1  CCC(CC)(c1ccc(OCC(O)C(C)(C)C)c(C)c1)c1cc(C)c(C(=O)OC)s1 (single isomer, unassigned) [Ex. 6B]              pEC50                  5.98
2  CCCc1cc(C(CC)(CC)c2ccc(C(=O)O)s2)ccc1OCC(O)C(C)(C)C (single isomer, unassigned) [Ex. 95]              pEC50                  5.93
3  CCC(CC)(c1ccc(OCC(O)C(C)(C)C)c(C)c1)c1ccc(C(=O)OC)s1 (centres unmarked) [Ex. 5]              pEC50                  5.99

I: CCC(CC)(c1ccc(OCS(C)(=O)=O)c(C)c1)c1cc(C)c(CCC(O)C(C)(C)C)s1 (single isomer, unassigned) [Ex. 15B]
II: CCC(CC)(c1ccc(OCC(O)C(C)(C)C)c(C)c1)c1cc(C)c(S(=O)(=O)NCC(=O)OC)s1 (centres unmarked) [Ex. 136]
Input: So which one has the bigger pEC50 here, I or II ? Record your answer as the label of the chosen record.
Output: I
(I: 6.61, II: 6.05)

Measured values drawn from patent US7601850B2 for this set.
